pIC50: −log10 of the molar value.
Below, pIC50 values reported for Tyrosine-protein kinase receptor UFO (Homo sapiens) across several publications.

Ask | Give its pIC50 value. Item: CC1(Nc2ncc3c(OC4CCOCC4)ncc(-c4cccc(NS(C)(=O)=O)c4)c3n2)CC1
Reply | 6.00 to 7.00

Ask | Similarly, CCCCNc1ncc2c(n1)N([C@H]1CC[C@H](O)CC1)Cc1cc(CN3CCOCC3)ccc1-2 ?
Reply | < 6.00

Ask | Similarly, C[C@@H](COC(F)F)Nc1ncc2c(-c3cnn(C(C)(C)C(=O)N4CCN(C)CC4)c3)cc([C@H]3CC[C@H](O)CC3)n2n1 ?
Reply | ≥ 7.00

Ask | Similarly, CC(C)n1cc(-c2ccc(F)cc2)c(=O)c(C(=O)Nc2ncc(Oc3ccnc(N)c3Cl)cn2)n1 ?
Reply | 7.64

Ask | Similarly, COC[C@H](C)Nc1ncc2c(-c3ccc(C#N)c(F)c3)cc([C@H]3CC[C@H](O)CC3)n2n1 ?
Reply | ≥ 7.00

More entries:
Ask | Give its pIC50 value. Item: CCCC(C)Nc1ncc2c(O[C@H]3C[C@@H](O)C3)ncc([C@H]3CC[C@H](O)CC3)c2n1 (stereo partly drawn)
Reply | 6.00 to 7.00

Ask | Similarly, C=C(C)c1c(C)n(C)c(C)c(C(=O)Nc2ccc(Oc3ccnc4cc(OC)c(OC)nc34)c(F)c2)c1=O ?
Reply | ≥ 7.00

Ask | Similarly, Cc1c(C(=O)Nc2ccc(Oc3ncnc4[nH]cc(-c5ccccc5)c34)c(F)c2)c(=O)c2ccc(C(F)(F)F)cc2n1C ?
Reply | < 5.00

Ask | Similarly, COC[C@@H](C)Nc1ncc2c(OC3CC(O)C3)ncc([C@H]3CC[C@H](O)CC3)c2n1 (stereo partly drawn) ?
Reply | 5.00 to 6.00

Ask | Similarly, CC[C@H](C)Nc1ncc2c(O[C@H]3CC[C@](C)(O)CC3)ncc([C@H]3CC[C@H](O)CC3)c2n1 ?
Reply | 6.00 to 7.00

Ask | Similarly, O[C@H]1CC[C@H](c2cnc(OC3CCNCC3)c3cnc(Nc4ccccc4F)nc32)CC1 ?
Reply | 6.00 to 7.00

Ask | Similarly, C[C@H](CF)Nc1ncc2c(OC3CCOCC3)ncc([C@H]3CC[C@H](O)CC3)c2n1 ?
Reply | 6.00 to 7.00

Ask | Similarly, C[C@@H](CC1CC1)Nc1ncc2c(-c3ccc(CN4CCN(C)CC4)cc3)cc([C@H]3CC[C@H](O)CC3)n2n1 ?
Reply | ≥ 7.00

Ask | Similarly, C[C@@H](CCO)Nc1ncc2c(OC3CCOCC3)ncc([C@H]3CC[C@H](O)CC3)c2n1 ?
Reply | 5.00 to 6.00

Ask | Similarly, CC[C@]1(O)CC[C@@H](c2cc(-c3cnn(C4COC4)c3)c3cnc(N[C@@H](C)COC)nn32)CC1 ?
Reply | ≥ 7.00
